The following molecules are listed with their measured % Inhibition values.
System: α-amylase
Test name: α-amylase enzyme inhibition assay (starch, dinitro-salicylic acid, 540 nm)
Type: biochemical
Assay conditions: 1000 µg/mL, Table 8 (MCu series)
Report the value in % with no unit label.

CN(C)C(=N)NC(=N)N=Cc1ccccc1O.CN(C)C(=N)NC(=N)N=Cc1ccccc1O.O.O.O.O.O.O=S(=O)([O-])[O-].[Cu+2]: 77.56
CC(C)=NC(=N)NC(=N)N(C)C.CC(C)=NC(=N)NC(=N)N(C)C.O.O.O.O.O.O=S(=O)([O-])[O-].[Cu+2]: 61.38
CC(=NC(=N)NC(=N)N(C)C)c1ccccc1.CC(=NC(=N)NC(=N)N(C)C)c1ccccc1.O.O.O.O.O.O=S(=O)([O-])[O-].[Cu+2]: 64.65
C[C@H]1O[C@H](O[C@H]2[C@H](O)[C@@H](O)[C@@H](O[C@H]3[C@H](O)[C@@H](O)C(O)O[C@@H]3CO)O[C@@H]2CO)[C@H](O)[C@@H](O)[C@@H]1N[C@H]1C=C(CO)[C@@H](O)[C@H](O)[C@H]1O (stereo partly shown) [Acarbose, reference compound]: 92.73
CN(C)C(=N)NC(=N)N=Cc1ccccc1.CN(C)C(=N)NC(=N)N=Cc1ccccc1.O.O.O.O.O.O=S(=O)([O-])[O-].[Cu+2]: 73.31
CN(C)C(=N)NC(=N)N=C(c1ccccc1)C(O)c1ccccc1.CN(C)C(=N)NC(=N)N=C(c1ccccc1)C(O)c1ccccc1.O.O.O.O.O.O=S(=O)([O-])[O-].[Cu+2] (stereo not shown): 67.48

Determine from records and report % Inhibition for CN(C)C(=N)NC(=N)N=C(c1ccccc1)c1ccccc1.CN(C)C(=N)NC(=N)N=C(c1ccccc1)c1ccccc1.O.O.O.O.O.O=S(=O)([O-])[O-].[Cu+2] 55.43
